- Tested on: rat thymocytes
- Procedure Summary: anti-glucocorticoid activity vis-a-vis dexamethasone: incorporation of uridine in rat thymocytes
- Assay type: cell-based
- Stated Conditions: Rattus norvegicus, Thymocyte, 3 h, product at 10^-7 M; with 5×10^-8 M dexamethasone; 3 hours at 37° C.
Quick list: inhibition at 0.1 µM per entry.
Give the value, in units of %, as a plain number.

Record excerpt, results attached:
Please indicate recorded inhibition at 0.1 µM of CC#C[C@]1(OC(=O)CCC(=O)O)CC[C@H]2[C@@H]3CCC4=CC(=O)CCC4=C3[C@@H](c3ccc(SC)cc3)C[C@@]21C [Example 12] measured with rat thymocytes.
62

// fetch inhibition at 0.1 µM; item: CN(C)c1ccc([C@H]2C[C@@]3(C)[C@@H](CC[C@]3(C#CCl)OC(=O)CCC(=O)O)[C@@H]3CCC4=CC(=O)CCC4=C32)cc1 [Example 10] ; system: rat thymocytes
19

Given CN(C)c1ccc([C@H]2C[C@@]3(C)[C@@H](CC[C@@]3(O)/C=C\COC(=O)CCC(=O)O)[C@@H]3CCC4=CC(=O)CCC4=C32)cc1 [Example 2] , report its inhibition at 0.1 µM on rat thymocytes.
1

Turning now to a further record.
Enter inhibition at 0.1 µM (test system rat thymocytes) for CN(C)c1ccc([C@H]2C[C@@]3(C)[C@@H](CC[C@@]3(O)C#CCOC(=O)CCC(=O)O)[C@@H]3CCC4=CC(=O)CCC4=C32)cc1 [Example 4]
2.5

* * *

- Study System: Glucocorticoid receptor (Rattus norvegicus)
- Construct: The thymuses were removed and homogenized; from tissue; host or cells: thymus cytosol (105,000 g supernatant) of suprarenalectomized male rats
- Sequence (P06536 whole entry): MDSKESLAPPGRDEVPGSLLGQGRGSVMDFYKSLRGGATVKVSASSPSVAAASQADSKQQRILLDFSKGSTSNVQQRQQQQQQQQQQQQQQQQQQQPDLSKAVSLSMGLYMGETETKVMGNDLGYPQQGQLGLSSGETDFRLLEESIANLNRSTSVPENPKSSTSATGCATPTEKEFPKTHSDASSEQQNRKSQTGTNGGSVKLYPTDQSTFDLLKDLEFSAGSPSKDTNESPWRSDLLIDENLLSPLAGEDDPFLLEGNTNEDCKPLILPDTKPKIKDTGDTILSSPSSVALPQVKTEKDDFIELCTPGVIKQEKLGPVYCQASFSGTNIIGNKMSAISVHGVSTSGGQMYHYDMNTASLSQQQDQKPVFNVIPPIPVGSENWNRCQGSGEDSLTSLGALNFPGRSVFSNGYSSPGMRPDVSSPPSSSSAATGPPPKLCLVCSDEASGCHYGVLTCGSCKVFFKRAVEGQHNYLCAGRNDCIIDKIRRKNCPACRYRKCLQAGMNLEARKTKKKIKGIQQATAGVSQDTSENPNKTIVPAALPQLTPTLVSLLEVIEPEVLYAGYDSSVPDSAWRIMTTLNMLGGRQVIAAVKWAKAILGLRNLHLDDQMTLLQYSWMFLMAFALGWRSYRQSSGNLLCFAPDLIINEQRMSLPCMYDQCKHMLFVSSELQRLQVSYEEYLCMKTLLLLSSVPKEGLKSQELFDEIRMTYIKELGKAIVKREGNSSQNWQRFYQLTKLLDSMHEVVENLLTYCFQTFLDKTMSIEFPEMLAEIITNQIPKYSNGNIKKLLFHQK
- Procedure Summary: relative bond affinity for the glucocorticoid receptor of rat's thymus
- Format: binding
- Stated Conditions: 4 hours incubation at 0° C.; tritiated dexamethasone 2.5 nM; RBA=100 (CH)/(CX), reference cold dexamethasone
compounds and their reported relative bond affinity (RBA), Glucocorticoid 4H
Form rule: numeric answer, no unit written next to it.

// fetch relative bond affinity (RBA), Glucocorticoid 4H for CN(C)c1ccc([C@H]2C[C@@]3(C)[C@@H](CC[C@]3(C#CCl)OC(=O)CCC(=O)O)[C@@H]3CCC4=CC(=O)CCC4=C32)cc1 ; system: Glucocorticoid receptor (Rattus norvegicus)
37

Read the next record carefully.
Write down the reported relative bond affinity (RBA), Glucocorticoid 4H (system: Glucocorticoid receptor (Rattus norvegicus)) of CN(C)c1ccc([C@H]2C[C@@]3(C)[C@@H](CC[C@@]3(O)/C=C\COC(=O)CCC(=O)O)[C@@H]3CCC4=CC(=O)CCC4=C32)cc1
62

* * *

- Study System: Androgen receptor (Rattus norvegicus, UniProt P15207)
- Construct: The prostates were removed, weighed and homogenized; from tissue; host or cells: prostate cytosol (105,000 g supernatant) of castrated male rats
- Sequence (P15207 whole entry S389L): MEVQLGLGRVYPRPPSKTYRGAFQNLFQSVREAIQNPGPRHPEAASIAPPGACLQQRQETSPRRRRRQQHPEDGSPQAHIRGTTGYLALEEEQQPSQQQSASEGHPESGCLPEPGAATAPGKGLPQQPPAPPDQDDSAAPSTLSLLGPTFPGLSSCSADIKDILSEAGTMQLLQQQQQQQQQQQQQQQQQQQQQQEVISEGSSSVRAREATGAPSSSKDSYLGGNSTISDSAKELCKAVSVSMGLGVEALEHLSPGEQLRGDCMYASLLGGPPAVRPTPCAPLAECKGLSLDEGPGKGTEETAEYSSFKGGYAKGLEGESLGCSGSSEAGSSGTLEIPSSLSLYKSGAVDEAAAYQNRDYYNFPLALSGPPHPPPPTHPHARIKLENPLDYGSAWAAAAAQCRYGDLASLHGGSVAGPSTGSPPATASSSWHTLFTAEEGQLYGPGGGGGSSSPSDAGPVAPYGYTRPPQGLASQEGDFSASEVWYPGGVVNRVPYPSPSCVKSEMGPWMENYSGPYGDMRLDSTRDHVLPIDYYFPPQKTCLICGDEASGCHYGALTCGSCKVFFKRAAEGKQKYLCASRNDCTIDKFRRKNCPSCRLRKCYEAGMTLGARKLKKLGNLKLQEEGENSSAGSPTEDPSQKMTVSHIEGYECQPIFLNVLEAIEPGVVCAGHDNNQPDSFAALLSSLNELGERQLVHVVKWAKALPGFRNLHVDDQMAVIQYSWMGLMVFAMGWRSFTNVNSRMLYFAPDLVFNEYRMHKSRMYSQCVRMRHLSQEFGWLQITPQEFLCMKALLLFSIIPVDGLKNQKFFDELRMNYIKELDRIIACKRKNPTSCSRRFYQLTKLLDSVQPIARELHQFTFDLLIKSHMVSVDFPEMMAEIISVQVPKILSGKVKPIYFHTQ
- Procedure Summary: relative bond affinity for the androgen receptor of rat's prostate
- Assay type: binding
- Stated Conditions: incubation at 0° C.; tritiated testosterone; RBA=100 (CH)/(CX), reference cold testosterone
Measured relative bond affinity (RBA), Androgen, listed per entry for reference.

Below, 3 compounds whose answers are already recorded.
For the compound CN(C)c1ccc([C@H]2C[C@@]3(C)[C@@H](CC[C@]3(C#CCl)OC(=O)CCC(=O)O)[C@@H]3CCC4=CC(=O)CCC4=C32)cc1 [Example 10] , give its measured relative bond affinity (RBA), Androgen value.
8,6

Answer with reported relative bond affinity (RBA), Androgen of CN(C)c1ccc([C@H]2C[C@@]3(C)[C@@H](CC[C@@]3(O)C#CCOC(=O)CCC(=O)O)[C@@H]3CCC4=CC(=O)CCC4=C32)cc1 [Example 4]
2,8

Give the value of relative bond affinity (RBA), Androgen reported for the following: CC#C[C@]1(OC(=O)CCC(=O)O)CC[C@H]2[C@@H]3CCC4=CC(=O)CCC4=C3[C@@H](c3ccc(SC)cc3)C[C@@]21C [Example 12]
0,3

Next:
State, in one line, measured relative bond affinity (RBA), Androgen of CN(C)c1ccc([C@H]2C[C@@]3(C)[C@@H](CC[C@@]3(O)/C=C\COC(=O)CCC(=O)O)[C@@H]3CCC4=CC(=O)CCC4=C32)cc1 [Example 2]
39
